Tested on: E13 (patient-derived glioblastoma stem cells of classical subtype)
Experiment: surviving fraction (nuclei count normalised to DMSO); higher = more cells surviving (less toxic)
Conditions: 37.037 nM; exposure time: 72 h
Structures can show the parent of a compound that is named as a salt.
measurementLabel: surviving fraction

compound="COC(=O)[C@@H]1[C@H]2C[C@H]3c4[nH]c5ccccc5c4CCN3C[C@@H]2CC[C@@H]1O [Yohimbine hydrochloride]" experimentalresult=1.03
compound="CCN(CC)CCCC(C)Nc1c2ccc(Cl)cc2nc2ccc(OC)cc12 (centres undefined) [Quinacrine dihydrochloride hydrate]" experimentalresult=0.789
compound=Cc1ccc(NC(=O)c2ccc3c(c2)OCCO3)cc1NC(=O)c1ccc2nc(OCCN3CCCC3)ccc2c1 experimentalresult=0.402
compound="OCCN1C[C@H](O)[C@@H](O)[C@H](O)[C@H]1CO [Miglitol]" experimentalresult=0.938

---

Tested on: E34 (patient-derived glioblastoma stem cells of proneural subtype)
Assay: surviving fraction (nuclei count normalised to DMSO); higher = more cells surviving (less toxic)
Settings: 1000 nM; exposure time: 72 h
Where a name gives a salt, the structure may show the parent alone.
Respond with true for surviving fraction values of 0.6 and above, false for values below.

compound=COC(=O)Nc1nc2cc(Sc3ccccc3)ccc2[nH]1 testsystem=E34 classlabel=false
compound="CCC1=C[C@@H]2CN(C1)Cc1c([nH]c3ccccc13)[C@@](C(=O)OC)(c1cc3c(cc1OC)N(C)[C@H]1[C@@](O)(C(=O)OC)[C@H](OC(C)=O)[C@]4(CC)C=CCN5CC[C@]31[C@@H]54)C2 [Vinorelbine Tartrate]" testsystem=E34 classlabel=false
compound="CC1(C)S[C@@H]2[C@H](NC(=O)Cc3ccccc3)C(=O)N2[C@H]1C(=O)O [Benzylpenicillin sodium]" testsystem=E34 classlabel=true
compound="CC1CNc2c(cccc2S(=O)(=O)N[C@@H](CCCNC(=N)N)C(=O)N2CC[C@@H](C)C[C@@H]2C(=O)O)C1 (some centres not stated)" testsystem=E34 classlabel=true
compound="CN1C(=O)CC(c2ccccc2)C1=O (configuration not stated) [Phensuximide]" testsystem=E34 classlabel=true
compound=COC(=O)Nc1nc2cc(C(=O)c3ccccc3)ccc2[nH]1 testsystem=E34 classlabel=false

---

Consider the following molecules and their measured surviving fraction readings.
System: E21 (patient-derived glioblastoma stem cells of mesenchymal subtype)
Test: surviving fraction (nuclei count normalised to DMSO); higher = more cells surviving (less toxic)
Conditions: 111.1 nM; exposure time: 72 h
Counter-ions that a name gives are not always drawn.
measurementLabel: surviving fraction

molecule="CN(c1nccc(=O)[nH]1)C1CCN(c2nc3ccccc3n2Cc2ccc(F)cc2)CC1 [Mizolastine]" experimentalresult=1.03
molecule="CN1[C@@H]2CC[C@H]1CC(OC(=O)c1c[nH]c3ccccc13)C2 (stereo partly specified) [3-Tropanyl-indole-3-carboxylate hydrochloride]" experimentalresult=1
molecule="COc1cccc2c1C(=O)c1c(O)c3c(c(O)c1C2=O)C[C@@](O)(C(=O)CO)C[C@@H]3O[C@H]1C[C@H](N)[C@H](O)[C@H](C)O1 [Doxorubicin hydrochloride]" experimentalresult=0.237
molecule="COc1cc(NS(C)(=O)=O)ccc1Nc1c2ccccc2nc2ccccc12 [Amsacrine]" experimentalresult=0.45
molecule="CNCCc1ccccn1 [Betahistine mesylate]" experimentalresult=0.957
molecule="CC(=O)O[C@H]1C[C@H](O[C@H]2[C@@H](O)C[C@H](O[C@H]3[C@@H](O)C[C@H](O[C@H]4CC[C@@]5(C)[C@H](CC[C@@H]6[C@@H]5C[C@@H](O)[C@]5(C)[C@@H](C7=CC(=O)OC7)CC[C@]65O)C4)O[C@@H]3C)O[C@@H]2C)O[C@H](C)[C@H]1O[C@@H]1O[C@H](CO)[C@@H](O)[C@H](O)[C@H]1O [Lanatoside C]" experimentalresult=0.347

---

Test system: E21
Assay: surviving fraction (nuclei count normalised to DMSO); higher = more cells surviving (less toxic)
Settings: 37 nM; exposure time: 72 h
Structures can show the parent of a compound that is named as a salt.
measurementLabel: surviving fraction

molecule="OC[C@H]1NC[C@H](O)[C@@H](O)[C@@H]1O [1-Deoxynojirimycin]" experimentalresult=0.952
molecule="CCCCCC[C@H]1C(=O)O[C@H](C)[C@H](NC(=O)c2cccc(NC=O)c2O)C(=O)O[C@@H](C)[C@@H]1OC(=O)CC(C)C [Antimycin A]" experimentalresult=0.542
molecule="Cc1c(-c2ccc(-c3ccccc3F)cc2)nc2ccc(F)cc2c1C(=O)O [Brequinar sodium salt hydrate]" experimentalresult=0.918
molecule="COc1ccc(C(=O)CC(=O)c2ccc(C(C)(C)C)cc2)cc1 [Avobenzone]" experimentalresult=1.05
molecule="C=CC(=O)Nc1cc(Nc2nccc(-c3cn(C)c4ccccc34)n2)c(OC)cc1N(C)CCN(C)C [Osimertinib mesylate]" experimentalresult=0.892
molecule="CC[C@@]1(O)C(=O)OCc2c1cc1n(c2=O)Cc2cc3c(CN(C)C)c(O)ccc3nc2-1 [Topotecan]" experimentalresult=0.114
molecule="CCCCCCC[N+](CC)(CC)CCCCc1ccc(Cl)cc1 [Clofilium tosylate]" experimentalresult=1.1
molecule="OCCN1CCN(CCCN2c3ccccc3Sc3ccc(C(F)(F)F)cc32)CC1 [Fluphenazine dihydrochloride]" experimentalresult=1.08

---

System: E34
Test: surviving fraction (nuclei count normalised to DMSO); higher = more cells surviving (less toxic)
Details: 333.333 nM; exposure time: 72 h
measurementLabel: surviving fraction

molecule="C/C=C(\\C)C(=O)N[C@@H](c1ccccc1)[C@@H](O)C(=O)O[C@H]1C[C@@]2(O)[C@@H](OC(=O)c3ccccc3)[C@@H]3[C@]4(OC(C)=O)CO[C@@H]4C[C@H](O)[C@@]3(C)C(=O)[C@H](OC(C)=O)C(=C1C)C2(C)C [Cephalomannine]" testsystem=E34 measurementlabel="surviving fraction" experimentalresult=0.293
molecule="COc1cc([C@@H]2c3cc4c(cc3[C@@H](O[C@@H]3O[C@@H]5CO[C@@H](C)O[C@H]5[C@H](O)[C@H]3O)[C@H]3COC(=O)[C@H]23)OCO4)cc(OC)c1O [Etoposide]" testsystem=E34 measurementlabel="surviving fraction" experimentalresult=0.668
molecule="C[C@@H](O)[C@H]1C(=O)N2C(C(=O)O)=C(S[C@@H]3CN[C@H](C(=O)N(C)C)C3)[C@H](C)[C@H]12 [Meropenem]" testsystem=E34 measurementlabel="surviving fraction" experimentalresult=1.07
molecule="CC(C)C[C@H](NC(=O)[C@H](Cc1ccccc1)C[C@@H](O)[C@H](Cc1ccccc1)NC(=O)OC(C)(C)C)C(=O)N[C@@H](Cc1ccccc1)C(N)=O [L-685,458]" testsystem=E34 measurementlabel="surviving fraction" experimentalresult=1.15

---

Each entry below carries its recorded phenotypic distance.
Tested on: E57 (patient-derived glioblastoma stem cells of mesenchymal subtype);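 also: cell Painting imaging in 384-well plates, CellProfiler features reduced to at least 20 principal components, Euclidean distance versus same-plate DMSO vehicle wells (0.1% v/v), median over six images per well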
Experiment: phenotypic distance (Euclidean, principal components) from DMSO controls (arbitrary units); higher = stronger morphological change
Details: 111.1 nM; exposure time: 72 h
Where a name gives a salt, the structure may show the parent alone.
measurementLabel: phenotypic distance

compound=COc1nc(C)nc(Cl)c1NC1=NCCN1 experimentalresult=0.801
compound=CC(=O)O[C@@]12CO[C@@H]1C[C@H](O)[C@@]1(C)C(=O)[C@H](O)C3=C(C)[C@@H](OC(=O)[C@H](O)[C@@H](NC(=O)OC(C)(C)C)c4ccccc4)C[C@@](O)([C@@H](OC(=O)c4ccccc4)[C@H]21)C3(C)C experimentalresult=5.42
compound="C=CC(=O)Nc1cc(Nc2nccc(-c3cn(C)c4ccccc34)n2)c(OC)cc1N(C)CCN(C)C [Osimertinib mesylate]" experimentalresult=1.02
compound="O=C(Nc1ccc([N+](=O)[O-])cc1Cl)c1cc(Cl)ccc1O [Niclosamide]" experimentalresult=4.83
compound=Nc1nc(Cl)nc2c1ncn2[C@@H]1O[C@H](CO)[C@@H](O)[C@@H]1F experimentalresult=5.48
compound=CCCSc1ccc2[nH]c(NC(=O)OC)nc2c1 experimentalresult=1.5
compound="N=C(N)c1ccc(-c2ccc(-c3ccc(C(=N)N)cc3)o2)cc1 [Furamidine dihydrochloride]" experimentalresult=0.581
compound=Nc1ccc(-c2ccc3ncc4ccc(=O)n(-c5cccc(C(F)(F)F)c5)c4c3c2)cn1 experimentalresult=3.47
compound="CC(C)NCC(O)COc1cccc2ccccc12 (stereo unspecified) [Propranolol hydrochloride]" experimentalresult=0.801
compound=Oc1ccc(OCc2ccccc2)cc1 experimentalresult=1.86
compound=CN1C(=O)OC(C)(C)C1=O experimentalresult=0.439
compound=CC(=O)[C@]1(O)Cc2c(O)c3c(c(O)c2[C@@H](O[C@H]2C[C@H](N)[C@H](O)[C@H](C)O2)C1)C(=O)c1ccccc1C3=O experimentalresult=6.05
compound="COC(=O)C1=C(C)NC(C)=C(C(=O)OCC(C)C)C1c1ccccc1[N+](=O)[O-] (stereo unspecified)" experimentalresult=0.633
compound=CC(C)(C)C1CCN(C(=O)n2ncc(C(O)(c3ccccc3)c3ccccc3)n2)CC1 experimentalresult=0.483
compound="COc1cc([C@@H]2c3cc4c(cc3[C@@H](O[C@@H]3O[C@@H]5CO[C@@H](c6cccs6)O[C@H]5[C@H](O)[C@H]3O)[C@H]3COC(=O)[C@H]23)OCO4)cc(OC)c1O [Teniposide]" experimentalresult=8.39
compound=C=C(C)[C@H]1Cc2c(ccc3c2O[C@@H]2COc4cc(OC)c(OC)cc4[C@@H]2C3=O)O1 experimentalresult=0.385

The measured values listed here are drawn from the supplement of paper PMC13207355.
